- System: thrombus formation in the carotid artery (70% FeCl3 patch)
- Test method notes: Anti-thrombotic activity, FeCl3-induced carotid artery thrombosis
- Type: in vivo, Male Wistar rats
- Experimental conditions: Rattus norvegicus, po, 0.5 h, 90 μmol/kg p.o., ½ h after dosage, % animals protected, read-out: Antithrombotic activity (% protection)
Flag rule - responders at 90 µmol/kg less than 40% flags Yes; the remaining entries get No.

# input Just wondering, is responders at 90 µmol/kg of CC(=O)S[C@@H]1CO[C@H]2[C@@H]1OC[C@H]2O[N+](=O)[O-] [Ej. 10] below 40%?
# output No

# input Strictly below 40%: is that where responders at 90 µmol/kg of CC[S+]([O-])[C@H]1CO[C@H]2[C@@H]1OC[C@H]2O[N+](=O)[O-] (stereo partly drawn) [Ej. 4] sits?
# output Yes

# input For CCS(=O)(=O)[C@H]1CO[C@H]2[C@@H]1OC[C@H]2O[N+](=O)[O-] [Ej. 7] , is the recorded responders at 90 µmol/kg below the cut-off of 40%?
# output No

# input Record C[S@+]([O-])[C@H]1CO[C@H]2[C@@H]1OC[C@H]2O[N+](=O)[O-] [Comp 7, reference compound] : is its responders at 90 µmol/kg strictly below 40%?
# output Yes
